Where these numbers come from: the supplement of paper PMC7411054

Test system: HepG2-TUBA1B-RELA
Assay: phenotypically active (imaging signature differs from DMSO and reproducible) at any of 0.3-9 uM (binary (1 = active, 0 = inactive)); higher = active
Settings: treatment time: 24 h
Structures can show the parent of a compound that is named as a salt.
The categories you may choose from are active, inactive

Called result for CC1(C)CCC(c2ccc(Cl)cc2)=C(CN2CCN(c3ccc(C(=O)NS(=O)(=O)c4ccc(N[C@H](CCN5CCOCC5)CSc5ccccc5)c(S(=O)(=O)C(F)(F)F)c4)cc3)CC2)C1 [navitoclax]
inactive

Continuing:
Called result for COCC(=O)O[C@]1(CCN(C)CCCc2nc3ccccc3[nH]2)CCc2cc(F)ccc2[C@@H]1C(C)C [mibefradil]
active

Called result for O=C(NCc1cccc(O)c1)Nc1nc(-c2ccncc2)cs1 [RKI 1447 dihydrochloride]
active

Called result for CC(C)[N@+]1(C)[C@@H]2CC[C@H]1C[C@@H](OC(=O)C(CO)c1ccccc1)C2 (some centres not stated) [ipratropium]
inactive

Called result for CCc1c(C)[nH]c2c1C(=O)C(CN1CCOCC1)CC2 (configuration not stated) [molindone]
inactive

Called result for "COc1cc(C(=O)N2CCC(N3CCN(C)CC3)CC2)ccc1Nc1ncc2c(n1)N(C)c1ccccc1C(=O)N2C"
active

Called result for "O=C(CCCCCCC(=O)Nc1ccccc1)NO"
active
